Target: Nonstructural protein 1 (Influenza A virus)
Sequence (Q194T2 whole entry): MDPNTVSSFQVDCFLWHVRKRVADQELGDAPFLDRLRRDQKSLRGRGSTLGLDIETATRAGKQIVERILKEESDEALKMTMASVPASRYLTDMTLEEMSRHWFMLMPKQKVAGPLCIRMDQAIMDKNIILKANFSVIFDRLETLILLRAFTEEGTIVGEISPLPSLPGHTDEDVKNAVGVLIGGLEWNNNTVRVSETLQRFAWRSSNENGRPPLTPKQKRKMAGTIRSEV
Format: functional, Influenza A virus (A/California/07/2009(H1N1))
The source made the active and inactive calls.
Experimental Readout: IC50

{"columns": ["Structure", "Measured Result"],
 "data": [
  ["Cc1ccc(Nc2ccccc2N)cc1", "21.9 µM (active)"],
  ["O=C1Nn2c(nc3c(c2=O)CCC3)/C1=N/Nc1cccc(Cl)c1", "> 100 µM (active)"],
  ["Cc1ccc(C(=O)N/N=C/c2cc(Br)ccc2O)cn1", "12.3 µM (active)"],
  ["c1ccc(-c2nnc(-c3ccccn3)nn2)nc1", "12.6 µM (active)"],
  ["COc1ccc(C(=O)COC(=O)CN2CC(=O)Oc3ccccc32)cc1Br", "4.25 µM (active)"],
  ["COc1cc([N+](=O)[O-])cc(/C=N/NC(=O)Cn2cncn2)c1O", "10.1 µM (active)"],
  ["CC(C)COC(=O)c1ccc2c(c1O)C(=O)c1ccccc1C2=O", "34.6 µM (active)"],
  ["CCN(CC)Cc1cc(Nc2c3ccccc3nc3c4ccccc4n(C)c23)cc(CN(CC)CC)c1O", "17.9 µM (active)"],
  ["Oc1c(CN2CCCCC2)cc(Br)c2cccnc12", "3.55 µM (active)"]
]}
